- Tested on: Endogenous Huntingtin Protein
- method description: Endogenous Huntingtin Protein Assay (ELISA-based MSD electrochemiluminescence)
- Format: cell-based
- condition description: Table 2; MSD plates coated with MW1 (expanded polyglutamine) or MAB2166 capture antibody; "inactive" = result above the detection limit of the assay
pIC50: −log10 of the molar value.
Classes based on pIC50: 0 = under 7, 1 = from 7 up to 8, 2 = 8 and over

**Q:** Entry COc1cc(-c2ccc(-c3cnc(N4C[C@@H](C)N[C@@H](C(C)C)C4)nn3)c(O)c2)ccn1 [Cpd 257] belongs to which category?
**A:** 1

**Q:** Also CC(C)[C@H]1CN(c2ncc(-c3cc(F)c(-c4cn[nH]c4)cc3O)nn2)CCN1 [Cpd 158] ?
**A:** 2

**Q:** Repeat for the following compound: Oc1cc(-n2nccn2)ccc1-c1cnc(N2CCN3CCC[C@H]3C2)nn1 [Cpd 153]
**A:** 0

**Q:** Another compound to check: Cc1nc2ncc(-c3ccc(-c4cnc(N5C[C@@H](C)N[C@@H](C)C5)nn4)c(O)c3)cn2n1 [Cpd 112]
**A:** 1

**Q:** Record: Oc1cc(-c2cn[nH]c2)ccc1-c1cnc(N2CCNC(C3CC3(F)F)C2)nn1 (stereo not drawn) [Cpd 36]
**A:** 1

**Q:** And what about the compound Cc1nc2c(C)cc(-c3ccc(-c4cnc(N5C[C@@H](C)N[C@@H](C)C5)nn4)c(O)c3)nn2n1 [Cpd 83] ?
**A:** 2

**Q:** Record: Cn1nnc2ccc(-c3ccc(-c4cnc(N5CCN[C@@H](C6CC6)C5)nn4)c(O)c3)nc21 [Cpd 173]
**A:** 1

**Q:** Quick one: Cc1ccc(-c2ccc(-c3cnc(N4CCN[C@@H](C(C)C)C4)nn3)c(O)c2)cn1 [Cpd 160]
**A:** 0

**Q:** Next record, please: CC(C)C1CN(c2ncc(-c3ccc(-c4cn[nH]c4)cc3O)nn2)CCN1 (stereo not drawn) [Cpd 22]
**A:** 1

**Q:** Next compound: Cc1cn2cc(-c3ccc(-c4cnc(N5CCN[C@@H](C(C)C)C5)nn4)c(O)c3)ncc2n1 [Cpd 141]
**A:** 2

**Q:** Entry CC(C)[C@H]1CN(c2ncc(-c3ccc(-c4cnc5n4CCC5)cc3O)nn2)CCN1 [Cpd 279] please
**A:** 2

**Q:** Next compound up: CC(C)[C@H]1CN(c2ncc(-c3ccc(-c4ncc(Cl)s4)cc3O)nn2)CCN1 [Cpd 189]
**A:** 0

**Q:** CC(C)[C@H]1CN(c2ncc(-c3ccc(-c4nnc(C(F)F)s4)cc3O)nn2)CCN1 [Cpd 205] , same question.
**A:** 0

**Q:** Can you check CC(C)[C@H]1CN(c2ncc(-c3ccc(-c4ccc5nsnc5c4)cc3O)nn2)CCN1 [Cpd 263] next?
**A:** 0

**Q:** What about this compound? Oc1cc(-c2cn[nH]c2)ccc1-c1cnc(N2CCN3CCCCC3C2)nn1 (stereo not drawn) [Cpd 203]
**A:** 1

**Q:** Also CC[C@@H]1CN(c2ncc(-c3ccc(-c4cn[nH]c4)cc3O)nn2)CCN1 [Cpd 48] , if possible.
**A:** 0

**Q:** Do the same for Cc1nc2n(n1)CCN(c1ccc(-c3cnc(N4CCN[C@@H](C(C)C)C4)nn3)c(O)c1)C2 [Cpd 274] please
**A:** 0

**Q:** What would you report for COc1cc(-c2ccc(-c3cnc(N4CCN[C@@H](C(C)C)C4)nn3)c(O)c2)nn2nc(C)nc12 [Cpd 70] ?
**A:** 2

**Q:** Entry C[C@@H]1CN(c2ncc(-c3ccc(-c4cc(F)c5nn(C)cc5c4)cc3O)nn2)C[C@@H](C)N1 [Cpd 76] please
**A:** 2

**Q:** What would you report for COc1cc(-c2cc(O)c(-c3cnc(N4CCN[C@@H](C(C)C)C4)nn3)c(F)c2)ncn1 [Cpd 28] ?
**A:** 1

**Q:** // repeat for CC(C)[C@H]1CN(c2ncc(-c3ccc(-c4ccc5nncn5c4)cc3O)nn2)CCN1 [Cpd 115] and report
**A:** 0
